biological target: Aspartate--tRNA(Asp/Asn) ligase (Mycobacterium tuberculosis (strain ATCC 25618 / H37Rv)) (UniProt P9WFW3); assay: Assay for Asp RNA synthetase-1 from Mycobacterium tuberculosis; assay type: functional; parameters: scale not given: in the data most compounds retested in dose-response had high values; conditions: 30 µM
Sequence (P9WFW3 whole entry): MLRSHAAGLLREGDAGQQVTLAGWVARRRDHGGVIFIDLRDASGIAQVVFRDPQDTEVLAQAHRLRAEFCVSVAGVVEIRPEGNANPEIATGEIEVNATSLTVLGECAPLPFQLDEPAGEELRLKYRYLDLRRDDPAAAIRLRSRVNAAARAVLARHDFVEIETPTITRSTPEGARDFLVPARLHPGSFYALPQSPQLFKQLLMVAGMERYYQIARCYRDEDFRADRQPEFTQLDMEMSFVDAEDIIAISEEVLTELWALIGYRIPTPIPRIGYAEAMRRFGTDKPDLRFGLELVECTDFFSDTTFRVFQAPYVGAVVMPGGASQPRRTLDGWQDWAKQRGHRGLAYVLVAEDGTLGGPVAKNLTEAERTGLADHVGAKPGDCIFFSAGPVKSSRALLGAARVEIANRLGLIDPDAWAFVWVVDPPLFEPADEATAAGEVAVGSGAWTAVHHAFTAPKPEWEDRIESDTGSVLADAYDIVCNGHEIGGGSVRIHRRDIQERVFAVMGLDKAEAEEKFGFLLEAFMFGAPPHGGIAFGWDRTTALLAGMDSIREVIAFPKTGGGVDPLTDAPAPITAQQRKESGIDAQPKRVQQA
observed.property: Percent Effect (%)
Report the value in % with no unit label.

Reference set, count: 10
INSERT INTO results (compound, scale_unit, reported_value) VALUES
  ('Cc1cc(CN2CCC(c3ccnn3CCO)CC2)no1', '%', -1.46),
  ('Cc1ccoc1-c1nnc(CNCCn2cccn2)o1', '%', 0.914),
  ('COCC1CC2(CCN(Cc3ccccn3)CC2)CN1C(C)C (configuration not stated)', '%', 4.1),
  ('CN1CCC(CCNC(=O)c2ccc(N(C)S(C)(=O)=O)cc2Cl)CC1', '%', 1.1),
  ('Cc1cc(C)n(CCCNC(=O)C(C)NC(=O)c2ccccc2Cl)n1 (configuration not stated)', '%', 1.92),
  ('Cn1ncc(NCc2cccc(COC(C)(C)C)c2)c(Cl)c1=O', '%', -4.13),
  ('CCN(C)c1ncnc2c1CCN(Cc1ccc(OC)cc1)CC2', '%', 7),
  ('COc1ccccc1OCc1cc(C(=O)N2CCN[C@H](C)C2)n[nH]1', '%', 0.167),
  ('CC(C)c1nc(C2CCCN2CCc2ccncc2)no1 (configuration not stated)', '%', 1.61),
  ('Cc1ccc(N2CCCC(NCc3cscn3)C2)nn1 (configuration not stated)', '%', 10.3);

Sample CN(CC1CC1)c1ccc2ccc(C(=O)NCCN3CCOCC3)cn12 — what was its Percent Effect? -0.228

Then CN(Cc1ccc(F)cc1)[C@@H]1CN(C(=O)c2cccs2)C[C@H]1O ? 4.22
